test system: SRS-A; assay: Anti-SRS-A effect on guinea pig's ileum (Magnus method); conditions: 10^-6 g/ml
Counter-ions that a name gives are not always drawn.

{"COMPOUND": "CC(CN1CCCC1)C(=O)c1ccc2ccccc2c1 (stereo not shown) [Example 6, hydrochloride]", "MEASURED_TARGET": "SRS-A", "ileum contraction inhibiting rate (%)": 0.3}
{"COMPOUND": "CC(CN1CCCCC1)C(=O)c1ccc2ccccc2c1 (stereo not shown) [Example 2, hydrochloride]", "MEASURED_TARGET": "SRS-A", "ileum contraction inhibiting rate (%)": 10.0}
{"COMPOUND": "COc1ccc(C(=O)C(C)CN2CCCCC2)cc1OC.Cl (stereo not shown)", "MEASURED_TARGET": "SRS-A", "ileum contraction inhibiting rate (%)": 1.0}
{"COMPOUND": "CC(CN(C)C)C(=O)c1ccc2ccccc2c1 (stereo not shown) [Example 3, hydrochloride]", "MEASURED_TARGET": "SRS-A", "ileum contraction inhibiting rate (%)": 1.3}
{"COMPOUND": "CCN(CC)CC(C)C(=O)c1ccc(C)cc1.Cl (stereo not shown)", "MEASURED_TARGET": "SRS-A", "ileum contraction inhibiting rate (%)": 3.0}
{"COMPOUND": "Cc1ccc(C(=O)C(C)CN(C)C)cc1.Cl (stereo not shown)", "MEASURED_TARGET": "SRS-A", "ileum contraction inhibiting rate (%)": 4.3}
{"COMPOUND": "Cc1ccc(C(=O)C(C)CN2CCN(CC(C)C)CC2)cc1.Cl.Cl (stereo not shown)", "MEASURED_TARGET": "SRS-A", "ileum contraction inhibiting rate (%)": 0}
{"COMPOUND": "Cc1ccc(C(=O)C(C)CN2CCN(C)CC2)cc1.Cl.Cl (stereo not shown)", "MEASURED_TARGET": "SRS-A", "ileum contraction inhibiting rate (%)": 10.3}
{"COMPOUND": "COc1ccc(C(=O)C(C)CN2CCCCC2)cc1.Cl (stereo not shown)", "MEASURED_TARGET": "SRS-A", "ileum contraction inhibiting rate (%)": 6.7}
{"COMPOUND": "CCN1CCN(CC(C)C(=O)c2ccc(C)cc2)CC1.Cl.Cl (stereo not shown)", "MEASURED_TARGET": "SRS-A", "ileum contraction inhibiting rate (%)": 0.3}
